# assay.system: MAO-A (Homo sapiens)
# Construct: purchased Sigma-Aldrich
# Sequence (P21397 whole entry): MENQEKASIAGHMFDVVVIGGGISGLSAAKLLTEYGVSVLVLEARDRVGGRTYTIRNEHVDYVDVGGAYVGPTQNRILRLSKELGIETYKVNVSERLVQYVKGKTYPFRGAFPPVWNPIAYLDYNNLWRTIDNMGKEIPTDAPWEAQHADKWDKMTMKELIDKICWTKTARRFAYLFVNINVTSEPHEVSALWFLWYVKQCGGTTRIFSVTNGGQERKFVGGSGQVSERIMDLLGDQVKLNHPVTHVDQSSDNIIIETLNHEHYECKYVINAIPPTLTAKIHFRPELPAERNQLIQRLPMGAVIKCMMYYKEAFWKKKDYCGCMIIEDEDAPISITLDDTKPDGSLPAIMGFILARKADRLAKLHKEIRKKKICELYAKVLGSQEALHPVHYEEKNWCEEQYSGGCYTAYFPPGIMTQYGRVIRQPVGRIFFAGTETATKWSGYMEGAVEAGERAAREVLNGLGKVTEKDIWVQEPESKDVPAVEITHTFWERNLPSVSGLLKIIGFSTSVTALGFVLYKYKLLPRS
# test.method.notes: MAO-A inhibition assay (recombinant enzyme, kynuramine substrate)
# Assay type: biochemical
# particulars: recombinant MAO-A, kynuramine 0.06 mM; read-out: IC50 (µM) MAO-A
For each record, write down the corresponding IC50.
Express it in µM; write the number only.

### Prompt If you can, please state the reported IC50 value of COc1ccc(C(=O)/C=C/c2cccc(Br)c2)c(OC)c1 .
### Response 12.8

### Prompt Which IC50 is listed for COc1ccc(C(=O)/C=C/c2cccc(Cl)c2)c(OC)c1 ?
### Response 5.73

### Prompt Recorded IC50 for COc1ccc(C(=O)/C=C/c2ccc(F)cc2)c(OC)c1 , please?
### Response 16

### Prompt Request the reported IC50 associated with COc1ccc(C(=O)/C=C/c2cccc(F)c2)c(OC)c1
### Response 11.3

Data provenance is paper PMC9503132.
